What solubility kinetic was measured for each of the following?
Details: buffer; pH 7.4; 200.0 µM
Express it in µg/mL; write the number only.

Give the measured solubility kinetic of "Fc1cc(Br)cc(F)c1NC(=S)N1CCOCC1" .
33.8

Can you handle "Cn1c(N)c(Br)c(-c2ccc(F)cc2)c(C#N)c1=O" next?
8

What do you get for "CCCCc1nc(NCCO)c(C#N)c2c1CCCC2" ?
3.6

Do the same for "O=c1[nH]c(O)c(C=Nc2ccc(Cl)c(C(F)(F)F)c2)c(=O)[nH]1" please
1.7

Record: CC(=O)c1ccc(N(CC(=O)NC2CCS(=O)(=O)C2)S(=O)(=O)c2ccc(C)cc2)cc1 (centres undefined)
10.4

For "Cc1cc(N/C=C/C(=O)c2cccs2)ccc1F" then?
1.7

Same read-out for "Cc1ccc(CN2CCN(C(=O)CC(C)C)CC2)cc1" ?
25.1

Proceed to COc1ccccc1NC(=O)C(C)N(C)CCOc1ccccc1 (centres undefined)
23.1

Can you check "COc1ccc(CCNC(=O)COC(=O)/C=C/c2ccc(OC)cc2OC)cc1" next?
5.1

Field entry: "O=C(COCc1cc(-c2ccco2)on1)NC1CCCCC1"
42.4

// same read-out, input: "CCN(CCS(=O)(=O)c1ccc(Br)cc1)Cc1nc2ccccc2c(=O)[nH]1"
9.3

// next record "O=Cc1ccc2c(c1)CCN2Cc1ccccc1"
15.2

Moving on to the next molecule: "Cc1cc(/C=C2\SC(=S)NC2=O)c(C)n1-c1ccccc1"
3.3

Same lookup for "CC(C)C(=O)NCc1cc(-c2ccc(Cl)cc2)no1" , please.
3

Repeat with CC1(C)C2C(Cl)(Cl)C2(C)c2ccccc2N1C=O (centres undefined)
38.3

// next record Cc1ccc(S(=O)(=O)NC(C)C(=O)NC2CC2)cc1 (centres undefined)
41

Okay, and "O=C(CCNC(=O)c1ccc([N+](=O)[O-])cc1)Nc1nccs1" ?
12.9

Entry to check: "CC(C)[C@H](NC(=O)c1ccccc1F)C(=O)OCC(=O)NC1CC1"
34.3

Okay, and "Cc1c(C(=O)N2CCC2)oc2c(F)cccc12" ?
30.3

Also, "Cc1ccc(N(Cc2cc(=O)[nH]c3ccccc23)C(=O)C(C)C)cc1" please.
47.5

Same question, "O=C(Nc1cccc2ccccc12)C1CCCC1" this time
12.2

Same for "Cc1cc(-c2ccccc2)c2ccc(NC(=O)C(C)(C)C)nc2n1"
0.6

Next molecule up: "CNS(=O)(=O)c1ccc(NC(=O)Nc2ccc3c(c2)OCO3)cc1"
15.6

====

Conditions: buffer; pH 7.4; 200.0 µM
Please respond with reported solubility kinetic for every item in the list.
Give the number; µg/mL is assumed, so skip it.

Endpoint output: solubility kinetic of "CNC(=O)c1cc(C(=O)c2ccc(F)cc2Cl)c[nH]1" . Value?
14.1

Another molecule to look at: "O=[N+]([O-])c1ccc2nc(C3CCCCC3)[nH]c2c1"
31.5

How about "Cc1onc(-c2c(F)cccc2Cl)c1C(=O)Nc1cccc(S(=O)(=O)N2CCOCC2)c1" ?
37.8

Quick one: "CNCc1c(OCc2ccccc2)ccc2ccccc12.Cl"
44.9

What about "Cc1ccc(C)c(N2CCN(CCN3CCCCC3)CC2)c1.Cl" ?
36.5

Next entry: "COc1ccc(NC(=O)CSCc2ccc([N+](=O)[O-])cc2)cc1OC"
50.1

Another molecule: "O=c1c(-c2ccco2)[n+]([O-])c2ccccc2n1OCc1c(F)cccc1F"
3

"CCN(CC)CCNS(=O)(=O)c1ccc(/C=C/C(=O)O)cc1" , same question.
41

Input "O=C(NCCc1ccc([N+](=O)[O-])cc1)c1ccccc1"
14.2

Please answer likewise for "CCOC(=O)Cc1csc(NC(=O)CN2CCOCC2)n1"
40.1

Another molecule: CC(CC12CC3CC(CC(C3)C1)C2)NCc1ccccc1O.Cl (centres undefined)
38.5

Similarly, "CSc1ncc(C(=O)Nc2ccc(Br)cn2)c(C)n1" ?
47

Param item: "Cc1ccc2nc(SCC(=O)NCc3ccc(F)cc3)[nH]c2c1"
22.4

Cool, now "COC(=O)Nc1c(-c2ccccc2)nc2ccc(Cl)cn12"
2.2

Moving on to "Cc1ccc(NC(=O)NCc2cccn2C)cc1C"
2.2

What do you have for "O=C1CCC2=C(CCCC2=O)N1" ?
24.2

Item: "O=[N+]([O-])c1ccc(Cl)cc1N1CCCC1"
2.5

Queued: "S=C(NCc1cccc(Cl)c1)NCc1ccco1"
29.9

Now the molecule "Cc1ccc(C(=O)c2cc3c(cc2[N+](=O)[O-])OCCO3)cc1"
8

Input "O=C(CCS(=O)(=O)c1ccccc1)Nc1ccc(S(=O)(=O)Nc2nccs2)cc1"
23.6

Follow-up entry: "COc1cccc(C(=O)NCCNC(=O)c2ccc(C)nc2)c1"
45.7

For "Nc1cc(Cl)ccc1N1CCCCC1" then?
0.6

Can you handle "Cc1ccc(C(=O)N[C@H](C(=O)NC2CCCCC2)C(C)C)cc1" next?
8

Next: "Cc1cc(C(=O)OCC(=O)c2ccccc2)c2ccccc2n1"
3.6

Field entry: "COc1ccc(N=Cc2c(O)n(C)c(=O)n(C)c2=O)cc1"
11.1

What do you get for CCC(C)N1C(=O)CN(C2CCCCCC2)C(=O)C1c1ccccc1F (centres undefined) ?
19.6

Same question for "Cc1sc2ncnc(NS(=O)(=O)c3ccc(Cl)cc3)c2c1C" please.
47.8

Next: "Clc1cccc(CN2CCCCCC2)c1Cl"
4.8

Then what about the molecule "Cc1cc(C)cc(C(=O)Nc2nc3ccccc3[nH]2)c1" ?
1.4

Record: O=C1c2ccccc2CN1C(CO)c1ccccc1 (centres undefined)
34.7

Please give the result for "Cn1cc(CCCC(=O)NCc2ccccc2)c2ccccc21" too.
29.2

Cited source for all entries: PubChem BioAssay AID1996
